So I've got a bunch of binders here, and I need their pIC50 values.
Biological target: T1, mouse-derived galanin receptor protein (mouse pancreatic β-cell line MIN6-derived, encoded by pMGR20) (mouse, UniProt P56479 1-348)
T1 construct: also called mouse galanin receptor; MIN6-derived galanin receptor protein
T1 sequence: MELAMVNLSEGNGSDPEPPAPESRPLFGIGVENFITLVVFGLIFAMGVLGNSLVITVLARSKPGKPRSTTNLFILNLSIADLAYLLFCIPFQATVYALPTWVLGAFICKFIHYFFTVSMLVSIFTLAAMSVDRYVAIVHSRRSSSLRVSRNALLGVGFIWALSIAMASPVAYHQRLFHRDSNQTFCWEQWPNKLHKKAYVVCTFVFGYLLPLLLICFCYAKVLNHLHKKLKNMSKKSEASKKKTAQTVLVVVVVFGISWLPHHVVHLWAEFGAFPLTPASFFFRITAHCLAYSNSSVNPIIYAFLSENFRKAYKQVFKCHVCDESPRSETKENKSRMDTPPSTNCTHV
Experiment: competition with [125I] porcine galanin on MIN6 cell membrane fractions, 25 C 75 min, filtration
Experimental: The MIN6 cell membrane fractions prepared by the method of the above-mentioned (1) were diluted with a buffer for the receptor binding experiment (containing 20 mM of Tris, 1 mM of EDTA, 0.03% of NaN , 0.1% of BSA, 0.05% of CHAPS, 0.5 mM of PMSF, 10 μg/ml of pepstatin, 20 μg/ml of leupeptin and 4 μg/ml of E-64; pH: 7.4) to make the membrane protein concentration 50 μg/ml. The mixture was allowed to stand in a water bath of 25° C. for 75 minutes to promote the receptor binding reaction. […]
Where no end group is shown, it is not given here.
# pIC50 is unitless: minus log10 of the molar concentration; print number only

input: For GWTLNSAGYLLGPHAI (The range 1-16 counts on the mature peptide, not on the precursor) [galanin (1-16) partial peptide] , what is its reported pIC50?
output: 8.48

input: pIC50 for GWTLNSAGYLLGPHAIDNHRSFHDKYGLA (peptide, UniProt P07480 33-61, looked up, ends and bridges not checked, mature; The assay used the 29-residue peptide; also called standard porcine galanin; galanin (porcine)) [porcine galanin (unlabeled)] ?
output: 9.92
